Reference for the values: patent US20260176289A1

target: KRAS G12V (amino acids 1-169) (Homo sapiens, UniProt P01116, G12V); assay: SOS-catalyzed nucleotide exchange assay (Procedure B, BODIPY FL GDP displacement), KRAS G12V; conditions: read-out: KRAS G12V GNE IC50
Sequence (P01116 with tags, fused parts or gaps isoform P01116-2 G12V): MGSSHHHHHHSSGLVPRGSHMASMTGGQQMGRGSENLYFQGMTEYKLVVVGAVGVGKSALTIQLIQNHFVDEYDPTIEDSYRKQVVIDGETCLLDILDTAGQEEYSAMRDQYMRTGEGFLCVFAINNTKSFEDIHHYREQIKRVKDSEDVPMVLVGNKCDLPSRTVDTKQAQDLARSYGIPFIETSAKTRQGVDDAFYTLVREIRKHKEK
Hi there, I'd appreciate the recorded IC50 for every entry that follows.
Give bare numbers, in nM.

The cases that follow already have their IC50 on record.
• C[C@@H]1C[C@@H]1c1c(Cl)cc2[nH]ncc2c1-c1nccc2c1sc1nc(OC[C@@]34CCCN3C[C@H](F)C4)nc(N3CCOC[C@@](C)(O)C3)c12 (atropisomer, axis not shown; (aS)) [Ex-68] = 97.2
• CC1CC(F)(F)c2cc3[nH]ncc3c(-c3nccc4c3sc3nc(OC[C@@]56CCCN5C[C@H](F)C6)nc(N5CCOC[C@@](C)(O)C5)c34)c21 (stereo partly drawn) [Ex-101] = 5.16
• CO[C@]1(C)COCCN(c2nc(OC[C@@]34CCCN3C[C@H](F)C4)nc3sc4c(-c5c(C(F)(F)F)c(C)cc6[nH]ncc56)nccc4c23)C1 [Ex-203] = 936
• C#Cc1c(Cl)cc2[nH]ncc2c1-c1nccn2c1c(F)c1nc(OC[C@@]34CCCN3C[C@H](F)C4)nc(N3CCOC[C@@](C)(O)C3)c12 [Ex-304] = 33.9
• C[C@@]1(O)COCCN(c2nc(OC[C@@]34CCCN3C[C@H](F)C4)nc3sc4c(-c5c(-c6cnco6)c(Cl)cc6[nH]ncc56)nccc4c23)C1 [Ex-75] = 118

List reported IC50 for each of these compounds:
1. CC(=O)c1c(C(F)(F)F)cc2[nH]ncc2c1-c1nccc2c1sc1nc(OC[C@@]34CCCN3C[C@H](F)C4)nc(N3CCOC[C@@](C)(O)C3)c12 [Ex-59]
2. C#CC1CCc2cc3[nH]ncc3c(-c3nccc4c3sc3nc(OC[C@@]56CCCN5C[C@H](F)C6)nc(N5CCOC[C@@](C)(O)C5)c34)c21 (stereo partly drawn) [Ex-166]
3. C#Cc1c(Cl)cc2[nH]ncc2c1-c1nccc2c1sc1nc(OC[C@@]34CCCN3C[C@H](F)C4)nc(N3CCOC[C@@](C)(O)C3)c12 [Ex-158]

1. 125
2. 15.8
3. 15.5

List reported IC50 for each of these compounds:
1. Cc1cc2[nH]ncc2c(-c2nccn3c2c(C)c2nc(OC[C@@]45CCCN4C[C@H](F)C5)nc(N4CCOC[C@@](C)(O)C4)c23)c1C(F)(F)F (single isomer, unassigned) [Ex-301]
2. Cc1cc2[nH]ncc2c(-c2nccn3c2c(C)c2nc(OC[C@@]45CCCN4C[C@H](F)C5)nc(N4CCOC[C@@](C)(O)C4)c23)c1C1CC1 [Ex-298]
3. CCC1CCc2cc3[nH]ncc3c(-c3nccc4c3sc3nc(OC[C@@]56CCCN5C/C(=C\F)C6)nc(N5CCOC[C@@](C)(O)C5)c34)c21 (stereo partly drawn) [Ex-94]

[86.1, 159, 4.2]

The reported IC50 value, KRAS G12V (amino acids 1-169) (Homo sapiens, UniProt P01116, G12V), for CC1(C)Cc2cc3[nH]ncc3c(-c3nccc4c3sc3nc(OC[C@@]56CCCN5C[C@H](F)C6)nc(N5CCOC[C@@](C)(O)C5)c34)c2C1 [Ex-112] reads 402
